Data credit: the supplement of paper PMC10567573

B1: CPXM2 (parent)
chain: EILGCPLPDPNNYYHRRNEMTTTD

Variants of: B1
Assay name: protein stability index of a GFP-peptide fusion (GPS, HEK-293T) (PSI 1-6); higher = more stable;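 further: lentivirally expressed fusions sorted by FACS into six bins by GFP to DsRed ratio, PSI derived from sequencing read proportions per bin multiplied by bin number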
Experimental setup: c terminus: a fixed tail appended
Measured property: protein stability index

Output measured protein stability index for this item: T23L
3.07

Output measured protein stability index for this item: Y14I
3.46

Output measured protein stability index for this item: L3M
4.05

Output measured protein stability index for this item: L7R
3.69

Output measured protein stability index for this item: Y13I
3.92

Output measured protein stability index for this item: P6V
2.48

Output measured protein stability index for this item: Y13D
4.43

Output measured protein stability index for this item: M20F
2.98

Output measured protein stability index for this item: P10S
3.42
